# system: T1, TNFR1 (Homo sapiens, UniProt P19438)
# T1 chain: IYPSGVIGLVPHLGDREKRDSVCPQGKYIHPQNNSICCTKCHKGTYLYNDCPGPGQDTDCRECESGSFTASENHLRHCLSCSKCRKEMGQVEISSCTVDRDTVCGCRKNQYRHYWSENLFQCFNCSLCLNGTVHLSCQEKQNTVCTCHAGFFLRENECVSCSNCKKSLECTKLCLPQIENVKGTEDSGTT
# assay-comment: yeast display SC50
parameter-measured: apparent Kd (screen) (nM)
Your answer should be a plain number; it is taken to be in nM.

Use the examples below as a reference point.
- binder: "K66M (designed binder) MTLQELLREEALRRAEAEAFRYALELLAEKFPEQKEYLLDLAEEIESQIRSLSGVDVEDVRKFLDMEWAWVKELLAEHPAELAEVEAARAARLAELRAEVEAKVAA"
  apparent Kd (screen) / nM: 0.593
- binder: "A102L (designed binder) MTLQELLREEALRRAEAEAFRYALELLAEKFPEQKEYLLDLAEEIESQIRSLSGVDVEDVRKFLDKEWAWVKELLAEHPAELAEVEAARAARLAELRAEVELKVAA"
  apparent Kd (screen) / nM: 0.79
- binder: "L39I (designed binder) MTLQELLREEALRRAEAEAFRYALELLAEKFPEQKEYLIDLAEEIESQIRSLSGVDVEDVRKFLDKEWAWVKELLAEHPAELAEVEAARAARLAELRAEVEAKVAA"
  apparent Kd (screen) / nM: 0.653

Kindly review the next binder as well.
response.value for A102E (designed binder) MTLQELLREEALRRAEAEAFRYALELLAEKFPEQKEYLLDLAEEIESQIRSLSGVDVEDVRKFLDKEWAWVKELLAEHPAELAEVEAARAARLAELRAEVEEKVAA (field: apparent Kd (screen)) = 0.49
